Origin of values: ChEMBL document CHEMBL3045539

Tested on: Escherichia coli
Assay: Antimicrobial activity against Escherichia coli at 100 ug after 24 hr by cup diffusion technique
Assay type: functional
Details: read-out: DIZ
Exercise: state measured zone of inhibition at 100 µg/disc for each of the molecules provided.
A bare number is not enough; add the unit after it.

Task: Entry `CC1(C)S[C@@H]2[C@H](NC(=O)[C@H](N)c3ccccc3)C(=O)N2[C@H]1C(=O)O` has what zone of inhibition at 100 µg/disc?
Output: 16 mm

Task: Here is the next molecule: `N=C(N)c1ccc(-c2ccc(-c3cccs3)s2)nc1`
Output: 10 mm

Task: Here is the next molecule: `N#Cc1ccc(-c2ccc(-c3cccs3)s2)nc1`
Output: 13 mm

Task: Here is the next molecule: `N#Cc1ccc(-c2ccc(-c3cccs3)s2)cc1`
Output: 10 mm

----------
Exercise: state measured zone of inhibition at 100 µg/disc for each of the compounds provided.
Tested on: Bacillus subtilis
Assay: Antimicrobial activity against Bacillus subtilis at 100 ug after 24 hr by cup diffusion technique
Type: functional
Conditions: read-out: DIZ

Task: Entry `N=C(N)c1ccc(-c2ccc(-c3ccco3)o2)cc1` has what zone of inhibition at 100 µg/disc?
Output: 9 mm

Task: Here is the next compound: `CC1(C)S[C@@H]2[C@H](NC(=O)[C@H](N)c3ccccc3)C(=O)N2[C@H]1C(=O)O`
Output: 18 mm

Task: Here is the next compound: `N=C(N)c1ccc(-c2ccc(-c3cccs3)s2)cc1`
Output: 9 mm

Task: Here is the next compound: `N#Cc1ccc(-c2ccc(-c3cccs3)o2)cc1`
Output: 14 mm

----------
Exercise: state measured MIC for each of the molecules provided.
Test system: Saccharomyces cerevisiae
Experiment: Antimicrobial activity against Saccharomyces cerevisiae after 24 hr by CLSI liquid dilution method
Type: functional
A bare number is not enough; add the unit after it.

Task: Entry CC1(C)S[C@@H]2[C@H](NC(=O)[C@H](N)c3ccccc3)C(=O)N2[C@H]1C(=O)O [AMPICILLIN] has what MIC?
Output: 7.5 µg/mL

Task: Here is the next molecule: N#Cc1ccc(-c2ccc(-c3cccs3)s2)nc1 [6-(2,2'-BITHIOPHEN-5-YL)NICOTINONITRILE]
Output: 2.5 µg/mL

Task: Here is the next molecule: N=C(N)c1ccc(-c2ccc(-c3ccco3)o2)nc1 [6-(2,2'-BIFURAN-5-YL)NICOTINAMIDINE]
Output: 10 µg/mL

Task: Here is the next molecule: `N#Cc1ccc(-c2ccc(-c3cccs3)o2)cc1`
Output: 10 µg/mL

Task: Here is the next molecule: N#Cc1ccc(-c2ccc(-c3ccco3)o2)cc1 [4-(2,2'-BIFURAN-5-YL)BENZONITRILE]
Output: 2.5 µg/mL

Task: Here is the next molecule: `N=C(N)c1ccc(-c2ccc(-c3cccs3)o2)nc1`
Output: 15 µg/mL

Task: Here is the next molecule: N=C(N)c1ccc(-c2ccc(-c3cccs3)s2)nc1 [6-(2,2'-BITHIOPHENE-5-YL)NICOTINAMIDINE]
Output: 5 µg/mL

Task: Here is the next molecule: `N#Cc1ccc(-c2ccc(-c3cccs3)o2)nc1`
Output: 10 µg/mL

Task: Here is the next molecule: `N=C(N)c1ccc(-c2ccc(-c3cccs3)o2)cc1`
Output: 7.5 µg/mL

Task: Here is the next molecule: N#Cc1ccc(-c2ccc(-c3cccs3)s2)cc1 [4-(2,2'-BITHIOPHEN-5-YL)BENZONITRILE]
Output: 10 µg/mL

Task: Here is the next molecule: N=C(N)c1ccc(-c2ccc(-c3ccco3)o2)cc1 [4-(2,2'-BIFURAN-5-YL)BENZAMIDINE]
Output: 15 µg/mL

Task: Here is the next molecule: N#Cc1ccc(-c2ccc(-c3ccco3)o2)nc1 [6-(2,2'-BIFURAN-5-YL)NICOTINONITRILE]
Output: 2 µg/mL

Task: Here is the next molecule: N=C(N)c1ccc(-c2ccc(-c3cccs3)s2)cc1 [4-(2,2'-BITHIOPHENE-5-YL)BENZAMIDINE]
Output: 10 µg/mL

----------
System: Escherichia coli
Assay: Antimicrobial activity against Escherichia coli at 100 ug after 24 hr by cup diffusion technique
Format: functional
Details: read-out: DIZ
measured.endpoint: zone of inhibition at 100 µg/disc (mm)
All answers are understood in mm, so give the number only.

Task: Entry `N#Cc1ccc(-c2ccc(-c3cccs3)o2)cc1` has what zone of inhibition at 100 µg/disc?
Output: 12

Task: Here is the next compound: `N=C(N)c1ccc(-c2ccc(-c3cccs3)o2)nc1`
Output: 8

Task: Here is the next compound: `N=C(N)c1ccc(-c2ccc(-c3ccco3)o2)cc1`
Output: 6

Task: Here is the next compound: `N#Cc1ccc(-c2ccc(-c3ccco3)o2)cc1`
Output: 18

Task: Here is the next compound: `N#Cc1ccc(-c2ccc(-c3cccs3)o2)nc1`
Output: 14

Task: Here is the next compound: `N=C(N)c1ccc(-c2ccc(-c3ccco3)o2)nc1`
Output: 9

Task: Here is the next compound: `N=C(N)c1ccc(-c2ccc(-c3cccs3)s2)cc1`
Output: 11

Task: Here is the next compound: `N#Cc1ccc(-c2ccc(-c3ccco3)o2)nc1`
Output: 14

Task: Here is the next compound: `N=C(N)c1ccc(-c2ccc(-c3cccs3)o2)cc1`
Output: 9

----------
Exercise: state measured zone of inhibition at 100 µg/disc for each of the molecules provided.
System: Bacillus subtilis
Assay: Antimicrobial activity against Bacillus subtilis at 100 ug after 24 hr by cup diffusion technique
Assay type: functional
Settings: read-out: DIZ
All answers are understood in mm, so give the number only.

Task: Entry `N#Cc1ccc(-c2ccc(-c3ccco3)o2)nc1` has what zone of inhibition at 100 µg/disc?
Output: 16

Task: Here is the next molecule: `N=C(N)c1ccc(-c2ccc(-c3ccco3)o2)nc1`
Output: 7

Task: Here is the next molecule: `N=C(N)c1ccc(-c2ccc(-c3cccs3)o2)cc1`
Output: 11

Task: Here is the next molecule: `N=C(N)c1ccc(-c2ccc(-c3cccs3)o2)nc1`
Output: 5

Task: Here is the next molecule: `N#Cc1ccc(-c2ccc(-c3ccco3)o2)cc1`
Output: 19

Task: Here is the next molecule: `N#Cc1ccc(-c2ccc(-c3cccs3)o2)nc1`
Output: 13

Task: Here is the next molecule: `N#Cc1ccc(-c2ccc(-c3cccs3)s2)cc1`
Output: 12

Task: Here is the next molecule: `N=C(N)c1ccc(-c2ccc(-c3cccs3)s2)nc1`
Output: 7

Task: Here is the next molecule: `N#Cc1ccc(-c2ccc(-c3cccs3)s2)nc1`
Output: 12

----------
Exercise: state measured zone of inhibition at 100 µg/disc for each of the compounds provided.
Tested on: Staphylococcus aureus
Assay: Antimicrobial activity against Staphylococcus aureus at 100 ug after 24 hr by cup diffusion technique
Assay type: functional
Conditions: read-out: DIZ
All answers are understood in mm, so give the number only.

Task: Entry `N=C(N)c1ccc(-c2ccc(-c3cccs3)s2)cc1` has what zone of inhibition at 100 µg/disc?
Output: 8

Task: Here is the next compound: `N#Cc1ccc(-c2ccc(-c3cccs3)o2)nc1`
Output: 12

Task: Here is the next compound: `N=C(N)c1ccc(-c2ccc(-c3ccco3)o2)nc1`
Output: 6

Task: Here is the next compound: `N=C(N)c1ccc(-c2ccc(-c3cccs3)o2)nc1`
Output: 11

Task: Here is the next compound: `N#Cc1ccc(-c2ccc(-c3cccs3)o2)cc1`
Output: 12

Task: Here is the next compound: `CC1(C)S[C@@H]2[C@H](NC(=O)[C@H](N)c3ccccc3)C(=O)N2[C@H]1C(=O)O`
Output: 12

Task: Here is the next compound: `N#Cc1ccc(-c2ccc(-c3cccs3)s2)nc1`
Output: 13

Task: Here is the next compound: `N=C(N)c1ccc(-c2ccc(-c3cccs3)s2)nc1`
Output: 10

Task: Here is the next compound: `N=C(N)c1ccc(-c2ccc(-c3ccco3)o2)cc1`
Output: 8

Task: Here is the next compound: `N#Cc1ccc(-c2ccc(-c3cccs3)s2)cc1`
Output: 9

Task: Here is the next compound: `N#Cc1ccc(-c2ccc(-c3ccco3)o2)nc1`
Output: 17

Task: Here is the next compound: `N=C(N)c1ccc(-c2ccc(-c3cccs3)o2)cc1`
Output: 10

Task: Here is the next compound: `N#Cc1ccc(-c2ccc(-c3ccco3)o2)cc1`
Output: 18

----------
Molecular target: Albumin (Bos taurus)
Sequence (P02769 whole entry): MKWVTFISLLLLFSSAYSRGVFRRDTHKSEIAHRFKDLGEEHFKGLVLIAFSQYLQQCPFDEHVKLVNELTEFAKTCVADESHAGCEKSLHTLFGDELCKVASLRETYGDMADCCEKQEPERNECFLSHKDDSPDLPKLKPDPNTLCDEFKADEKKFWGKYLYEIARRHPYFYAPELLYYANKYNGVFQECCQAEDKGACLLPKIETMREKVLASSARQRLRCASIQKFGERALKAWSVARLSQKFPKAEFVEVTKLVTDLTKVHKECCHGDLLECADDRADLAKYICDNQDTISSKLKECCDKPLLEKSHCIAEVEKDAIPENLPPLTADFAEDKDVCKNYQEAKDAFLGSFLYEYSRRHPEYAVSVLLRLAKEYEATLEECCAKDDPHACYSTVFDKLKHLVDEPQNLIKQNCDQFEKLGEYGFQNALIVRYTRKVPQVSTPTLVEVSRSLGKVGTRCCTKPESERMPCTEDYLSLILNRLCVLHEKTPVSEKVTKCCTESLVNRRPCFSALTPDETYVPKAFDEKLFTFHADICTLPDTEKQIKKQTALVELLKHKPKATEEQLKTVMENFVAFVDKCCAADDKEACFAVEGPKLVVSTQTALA
Test: Induction of Bos taurus (bovine) serum albumin degradation after 1 hr by SDS-PAGE analysis
Settings: cattle
measured.endpoint: Activity

Some molecules with recorded Activity:
molecule | assay.system | result
N#Cc1ccc(-c2ccc(-c3ccco3)o2)nc1 [6-(2,2'-BIFURAN-5-YL)NICOTINONITRILE] | Albumin (Bos taurus) | Not Active
N=C(N)c1ccc(-c2ccc(-c3cccs3)s2)nc1 [6-(2,2'-BITHIOPHENE-5-YL)NICOTINAMIDINE] | Albumin (Bos taurus) | Active
N=C(N)c1ccc(-c2ccc(-c3cccs3)s2)cc1 [4-(2,2'-BITHIOPHENE-5-YL)BENZAMIDINE] | Albumin (Bos taurus) | Not Active
N=C(N)c1ccc(-c2ccc(-c3ccco3)o2)nc1 [6-(2,2'-BIFURAN-5-YL)NICOTINAMIDINE] | Albumin (Bos taurus) | Not Active
N#Cc1ccc(-c2ccc(-c3ccco3)o2)cc1 [4-(2,2'-BIFURAN-5-YL)BENZONITRILE] | Albumin (Bos taurus) | Active
N#Cc1ccc(-c2ccc(-c3cccs3)s2)cc1 [4-(2,2'-BITHIOPHEN-5-YL)BENZONITRILE] | Albumin (Bos taurus) | Active
N#Cc1ccc(-c2ccc(-c3cccs3)s2)nc1 [6-(2,2'-BITHIOPHEN-5-YL)NICOTINONITRILE] | Albumin (Bos taurus) | Not Active

Could you now consider this next molecule?
Task: Entry `N#Cc1ccc(-c2ccc(-c3cccs3)o2)cc1` has what Activity?
Output: Not Active
